- Tested on: COLO-679
- MEASUREMENT_NOTES: cells
- Type: functional, cell-based, Homo sapiens
- CONDITIONS_USED: Homo sapiens, COLO-679
- Description: SANGER: Inhibition of human COLO-679 cell growth in a cell viability assay.
pIC50: −log10 of the molar value.
RESULT_TYPE: pIC50

Measured pIC50 (COLO-679), entry O=C(c1cc(Cc2n[nH]c(=O)c3ccccc23)ccc1F)N1CCN(C(=O)C2CC2)CC1 [OLAPARIB] : < 5.30

Measured pIC50 (COLO-679), entry CC(=O)O[C@@]12CO[C@@H]1C[C@H](O)[C@@]1(C)C(=O)[C@H](O)C3=C(C)[C@@H](OC(=O)[C@H](O)[C@@H](NC(=O)OC(C)(C)C)c4ccccc4)C[C@@](O)([C@@H](OC(=O)c4ccccc4)[C@H]21)C3(C)C [DOCETAXEL] : < 8.00

Measured pIC50 (COLO-679), entry Cc1cnc(-c2cnc(NCCNc3ccc(C#N)cn3)nc2-c2ccc(Cl)cc2Cl)[nH]1 [LADUVIGLUSIB] : < 5.59
